# TGT: T1, Class I HLA molecule A*2402 in recombinant form
# T1 MHC heavy: not shown
# PROTOCOL_SUMMARY: iTopia ELISA-like peptide-HLA binding
# Source text: In order to identify and validate the immunogenic epitopes of the protein VK3-20, the iTopia™ high-throughput Epitope Discovery System was used (Beckman Coulter).
Attribute: Bond results
Give just the numeric value; % need not be written.

For orientation, consider the following solved cases.
INSERT INTO results (binder, assay_metric, endpoint_value) VALUES
  ('TLSCRASQI (also called P20) [VK3-20 peptide No 20 TLSCRASQI]', 'Bond results', 14),
  ('SQIVSSSYL [VK3-20 peptide No 26 SQIVSSSYL]', 'Bond results', 16),
  ('FTLTISRLE [VK3-20 peptide No 72 FTLTISRLE]', 'Bond results', 18),
  ('GQAPRLLIY [VK3-20 peptide No 42 GQAPRLLIY]', 'Bond results', 12),
  ('YLAWYQQKP [VK3-20 peptide No 33 YLAWYQQKP]', 'Bond results', 14),
  ('QYGSSPRTF [VK3-20 peptide No 91 QYGSSPRTF]', 'Bond results', 65),
  ('VYYCQQYGS [VK3-20 peptide No 86 VYYCQQYGS]', 'Bond results', 21);

Attention now turns to another entry.
Read off the recorded Bond results for IVSSSYLAW [VK3-20 peptide No 28 IVSSSYLAW]
34
